Cited source for all entries: patent US20160022684A1

test system: OCI-LY10; experiment: Combined drug treatment cell viability (CellTiter-Glo), ibrutinib with BET inhibitors, OCI-LY10; type: cell-based; details: OCI-LY-10; ibrutinib 80 nM with I-BET151 5 uM, JQ1 1 uM, OTX015 1 uM or medium alone (row); 3 days
measurement.label: luminescent signals
Answer with a number only.

Consider the worked cases shown below.
# input.smiles, result.number
records = [
    ("Cc1sc2c(c1C)C(c1ccc(Cl)cc1)=N[C@@H](CC(=O)Nc1ccc(O)cc1)c1nnc(C)n1-2", 25880.72),
    ("C=CC(=O)N1CCC[C@@H](n2nc(-c3ccc(Oc4ccccc4)cc3)c3c(N)ncnc32)C1", 23511.43),
    ("COc1cc2c(cc1-c1c(C)noc1C)ncc1[nH]c(=O)n([C@H](C)c3ccccn3)c12", 21683.85),
]

Could you now look at the following molecule, please?
Would you please give the reported luminescent signals of Cc1sc2c(c1C)C(c1ccc(Cl)cc1)=N[C@@H](CC(=O)OC(C)(C)C)c1nnc(C)n1-2 with OCI-LY10?
24844.65
